# STUDY TARGET: T1, mTfR-1 G199A on Expi293 cells (mouse, UniProt Q62351 1-763)
# T1 construct: whole, on cells
# T1 sequence (Q62351 whole entry G199A): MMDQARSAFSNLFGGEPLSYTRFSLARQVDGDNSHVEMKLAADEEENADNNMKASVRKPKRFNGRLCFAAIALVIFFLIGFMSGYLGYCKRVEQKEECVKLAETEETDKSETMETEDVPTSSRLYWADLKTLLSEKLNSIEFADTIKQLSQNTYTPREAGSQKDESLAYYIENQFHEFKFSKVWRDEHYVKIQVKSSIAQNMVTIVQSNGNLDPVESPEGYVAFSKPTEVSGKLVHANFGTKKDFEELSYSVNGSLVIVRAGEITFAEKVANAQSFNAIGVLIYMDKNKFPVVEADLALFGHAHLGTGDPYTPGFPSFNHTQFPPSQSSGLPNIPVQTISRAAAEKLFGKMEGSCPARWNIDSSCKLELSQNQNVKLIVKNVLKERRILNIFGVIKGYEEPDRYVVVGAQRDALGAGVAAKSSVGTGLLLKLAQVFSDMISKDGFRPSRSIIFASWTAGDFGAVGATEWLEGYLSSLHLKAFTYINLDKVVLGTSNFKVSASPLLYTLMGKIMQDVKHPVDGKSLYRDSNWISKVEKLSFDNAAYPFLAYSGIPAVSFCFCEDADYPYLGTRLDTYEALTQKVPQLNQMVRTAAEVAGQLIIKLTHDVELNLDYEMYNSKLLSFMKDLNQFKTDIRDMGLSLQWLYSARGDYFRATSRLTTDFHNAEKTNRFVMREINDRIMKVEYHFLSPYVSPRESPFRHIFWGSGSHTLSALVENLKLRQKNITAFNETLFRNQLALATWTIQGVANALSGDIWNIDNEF
# ASSAY SUMMARY: FACS, transfected Expi293 cells
PROPERTY NAME: % double-positive cells vs WT (%)
Enter your answer as a number in %; do not include the unit.

Asked: Please report the measured % double-positive cells vs WT for Clone C variant 18 VNAR-hFc (Fc fusion, not shown: a dimerising Fc or GST, also called Clone C v18; Clone C var; 18) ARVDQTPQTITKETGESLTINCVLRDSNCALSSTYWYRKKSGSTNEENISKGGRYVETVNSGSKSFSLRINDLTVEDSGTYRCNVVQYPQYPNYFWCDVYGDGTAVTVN
Given back: 42

Asked: Please report the measured % double-positive cells vs WT for 8D3 antibody (anti-mouse TfR-1 control; 8D3-hFc formatted antibody) (antibody, V domains shown) VH: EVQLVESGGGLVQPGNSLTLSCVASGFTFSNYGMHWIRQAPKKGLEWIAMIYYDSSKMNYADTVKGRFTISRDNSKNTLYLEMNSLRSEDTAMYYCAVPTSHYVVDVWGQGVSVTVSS VL: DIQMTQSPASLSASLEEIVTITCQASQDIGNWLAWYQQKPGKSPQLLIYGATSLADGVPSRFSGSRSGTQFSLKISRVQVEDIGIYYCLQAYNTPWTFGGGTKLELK
Given back: 69

Asked: Please report the measured % double-positive cells vs WT for Clone C variant 13 VNAR-hFc (Fc fusion, not shown: a dimerising Fc or GST, also called Clone C v13; Clone C var; 13) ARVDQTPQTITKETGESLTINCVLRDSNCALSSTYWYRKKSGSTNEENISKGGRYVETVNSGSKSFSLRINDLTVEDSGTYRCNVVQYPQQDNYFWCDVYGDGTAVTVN
Given back: 36

***
Asked: Please report the measured % double-positive cells vs WT for Clone C VNAR-hFc fusion (Fc fusion, not shown: a dimerising Fc or GST, bivalent VNAR-Fc; also called Clone C-hFc) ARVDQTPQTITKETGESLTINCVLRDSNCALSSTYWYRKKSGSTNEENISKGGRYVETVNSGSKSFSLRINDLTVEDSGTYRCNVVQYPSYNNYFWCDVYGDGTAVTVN
Given back: 72

Where do these numbers come from? They come from patent US20210403591A1.
